target: hDRD2 (Homo sapiens, UniProt P14416); experiment: cell-based; set-up: host or cells: 'Cells expressing hDRD2'; conditions: read-out: hDRD2 %Emax ± SEM
Sequence (P14416 whole entry): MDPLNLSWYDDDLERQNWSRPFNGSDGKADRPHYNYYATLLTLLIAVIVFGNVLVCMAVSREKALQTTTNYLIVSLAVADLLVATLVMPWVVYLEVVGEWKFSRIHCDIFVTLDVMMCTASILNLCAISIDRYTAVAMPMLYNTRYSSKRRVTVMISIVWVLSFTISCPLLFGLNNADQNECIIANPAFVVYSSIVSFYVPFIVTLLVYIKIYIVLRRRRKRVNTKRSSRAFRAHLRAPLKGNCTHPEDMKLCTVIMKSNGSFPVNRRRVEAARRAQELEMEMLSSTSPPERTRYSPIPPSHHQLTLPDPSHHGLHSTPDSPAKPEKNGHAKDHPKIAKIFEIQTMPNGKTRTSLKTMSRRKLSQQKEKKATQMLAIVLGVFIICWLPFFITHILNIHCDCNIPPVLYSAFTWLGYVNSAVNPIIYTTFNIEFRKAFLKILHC
Emax strictly under 90% means MET; at 90% or over means NOT MET.

- compound: "CC(=O)N(CCCN[C@@H]1CCCCNC(=O)[C@H](Cc2ccc(F)cc2)NC(=O)[C@H]([C@@H](C)O)NC(=O)[C@H](CCCCN)NC(=O)[C@@H](Cc2c[nH]c3ccccc23)NC(=O)[C@H](Cc2ccccc2)NC(=O)[C@H](Cc2ccccc2)NC(=O)[C@H](CCCNC(=N)N)NC1=O)C[C@@H]1C[C@@H]2c3cccc4[nH]cc(c34)C[C@H]2N(C)C1 [Compound 29A]"
  answer_label: "MET"
- compound: "C[C@@H](O)[C@@H]1NC(=O)[C@H](CCCCN)NC(=O)[C@@H](Cc2c[nH]c3ccccc23)NC(=O)[C@H](Cc2ccncc2)NC(=O)[C@H](Cc2ccccc2)NC(=O)[C@H](CCCNC(=N)N)NC(=O)[C@H](NCCSC[C@@H]2C[C@@H]3c4cccc5[nH]cc(c45)C[C@H]3N(C)C2)CCCCNC(=O)[C@H](Cc2ccccc2)NC1=O [Compound 23]"
  answer_label: "NOT MET"
- compound: "C[C@@H](O)[C@@H]1NC(=O)[C@H](CCCCN)NC(=O)[C@@H](Cc2c[nH]c3ccccc23)NC(=O)[C@H](Cc2ccccc2)NC(=O)[C@H](Cc2ccccc2)NC(=O)[C@H](CCCNC(=N)N)NC(=O)[C@H](NCCSC[C@@H]2C[C@@H]3c4cccc5[nH]cc(c45)C[C@H]3N(C)C2)CCCCNC(=O)[C@H](Cc2cccc(F)c2)NC1=O [Compound 6C]"
  answer_label: "NOT MET"
- compound: "C[C@@H](O)[C@@H]1NC(=O)[C@H](CCCCN)NC(=O)[C@@H](Cc2c[nH]c3ccccc23)NC(=O)[C@H](Cc2ccccc2)NC(=O)[C@H](Cc2ccccc2)NC(=O)[C@H](CCCNC(=N)N)NC(=O)[C@H](NC[C@H](Cc2ccc(O)cc2)NC(=O)C[S+]([O-])C[C@@H]2C[C@@H]3c4cccc5[nH]cc(c45)C[C@H]3N(C)C2)CCCCNC(=O)[C@H](Cc2ccc(F)cc2)NC1=O (stereo partly drawn) [Compound 13]"
  answer_label: "NOT MET"

---

biological target: hSSTR2 (Homo sapiens, UniProt P30874); construct: host or cells: 'Cells expressing hSSTR2'; experiment: Somatostatin receptor radioligand binding assay (hSSTR2)
Sequence (P30874 whole entry): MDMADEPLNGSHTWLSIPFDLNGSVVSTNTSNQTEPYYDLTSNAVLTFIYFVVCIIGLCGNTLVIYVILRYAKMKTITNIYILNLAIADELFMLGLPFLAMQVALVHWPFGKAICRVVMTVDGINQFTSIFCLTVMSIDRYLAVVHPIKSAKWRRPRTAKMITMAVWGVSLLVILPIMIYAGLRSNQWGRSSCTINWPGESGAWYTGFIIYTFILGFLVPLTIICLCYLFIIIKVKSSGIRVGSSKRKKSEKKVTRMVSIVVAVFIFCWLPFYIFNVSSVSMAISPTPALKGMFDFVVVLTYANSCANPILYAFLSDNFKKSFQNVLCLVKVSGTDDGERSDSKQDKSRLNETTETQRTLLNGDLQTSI

- compound: "C[C@@H](O)[C@@H]1NC(=O)[C@H](CCCCN)NC(=O)[C@@H](Cc2c[nH]c3ccccc23)NC(=O)[C@H](Cc2ccccc2)NC(=O)[C@H](Cc2ccccc2)NC(=O)[C@H](CCCNC(=N)N)NC(=O)[C@H](NCCSC[C@@H]2C[C@@H]3c4cccc5[nH]cc(c45)C[C@H]3N(C)C2)CCCCNC(=O)[C@H](Cc2c(F)c(F)c(F)c(F)c2F)NC1=O [Compound 6E]"
  output_unit: "nM"
  Ki: 5.48
- compound: "C[C@@H](O)[C@@H]1NC(=O)[C@H](CCCCN)NC(=O)[C@@H](Cc2c[nH]c3ccccc23)NC(=O)[C@H](Cc2ccncc2)NC(=O)[C@H](Cc2ccccc2)NC(=O)[C@H](CCCNC(=N)N)NC(=O)[C@H](NC[C@H](Cc2ccc(O)cc2)NC(=O)CS(=O)(=O)C[C@@H]2C[C@@H]3c4cccc5[nH]cc(c45)C[C@H]3N(C)C2)CCCCNC(=O)[C@H](Cc2ccccc2)NC1=O [Compound 21]"
  output_unit: "nM"
  Ki: 0.02
- compound: "C[C@@H](O)[C@@H]1NC(=O)[C@H](CCCCN)NC(=O)[C@@H](Cc2c[nH]c3ccccc23)NC(=O)[C@H](Cc2ccccc2)NC(=O)[C@H](Cc2ccccc2)NC(=O)[C@H](CCCNC(=N)N)NC(=O)[C@H](NCCSC[C@@H]2C[C@@H]3c4cccc5[nH]cc(c45)C[C@H]3N(C)C2)CCCCNC(=O)[C@H](Cc2cc(F)cc(F)c2)NC1=O [Compound 6B]"
  output_unit: "nM"
  Ki: 0.25

---

molecular target: hDRD2 (Homo sapiens); assay: cell-based; set-up: host or cells: 'Cells expressing hDRD2'; details: read-out: hDRD2 %Emax ± SEM;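 also: agonist activity at human DRD2 in DRD2-expressing cells, read as intracellular calcium mobilization with a FLIPR Calcium 4 fluorescent dye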

- compound: "C[C@@H](O)[C@@H]1NC(=O)[C@H](CCCCN)NC(=O)[C@@H](Cc2c[nH]c3ccccc23)NC(=O)[C@H](Cc2ccncc2)NC(=O)[C@H](Cc2ccccc2)NC(=O)[C@H](CCCNC(=N)N)NC(=O)[C@H](NC[C@H](Cc2ccc(O)cc2)NC(=O)C[S+]([O-])C[C@@H]2C[C@@H]3c4cccc5[nH]cc(c45)C[C@H]3N(C)C2)CCCCNC(=O)[C@H](Cc2ccccc2)NC1=O (stereo partly drawn)"
  Emax (%): 94.6
- compound: "C[C@@H](O)[C@@H]1NC(=O)[C@H](CCCCN)NC(=O)[C@@H](Cc2c[nH]c3ccccc23)NC(=O)[C@H](Cc2ccccc2)NC(=O)[C@H](Cc2ccccc2)NC(=O)[C@H](CCCNC(=N)N)NC(=O)[C@H](NCC[S+]([O-])C[C@@H]2C[C@@H]3c4cccc5[nH]cc(c45)C[C@H]3N(C)C2)CCCCNC(=O)[C@H](Cc2ccc(F)cc2)NC1=O (stereo partly drawn)"
  Emax (%): 103
- compound: "CC(=O)N(CCCNC[C@@H]1C[C@@H]2c3cccc4[nH]cc(c34)C[C@H]2N(C)C1)[C@@H]1CCCCNC(=O)[C@H](Cc2ccc(F)cc2)NC(=O)[C@H]([C@@H](C)O)NC(=O)[C@H](CCCCN)NC(=O)[C@@H](Cc2c[nH]c3ccccc23)NC(=O)[C@H](Cc2ccccc2)NC(=O)[C@H](Cc2ccccc2)NC(=O)[C@H](CCCNC(=N)N)NC1=O"
  Emax (%): 38.7

---

biological target: hSSTR5 (Homo sapiens, UniProt P35346); construct: expressed in transfected cells; host or cells: CHO-K1 (ATCC), pcDNA3.1, G418-selected clonal line; membranes; assay: Somatostatin receptor radioligand binding assay (hSSTR5); conditions: CHO-K1 cell membranes; 0.05 nM [125I-Tyr]-[DPhe-cyclo(Cys-Tyr-DTrp-Lys-Val-Cys)-Thr-NH2]; 60 minutes at 25°C; read-out: hSSTR5 Ki (nM) ± SEM
Sequence (P35346 whole entry): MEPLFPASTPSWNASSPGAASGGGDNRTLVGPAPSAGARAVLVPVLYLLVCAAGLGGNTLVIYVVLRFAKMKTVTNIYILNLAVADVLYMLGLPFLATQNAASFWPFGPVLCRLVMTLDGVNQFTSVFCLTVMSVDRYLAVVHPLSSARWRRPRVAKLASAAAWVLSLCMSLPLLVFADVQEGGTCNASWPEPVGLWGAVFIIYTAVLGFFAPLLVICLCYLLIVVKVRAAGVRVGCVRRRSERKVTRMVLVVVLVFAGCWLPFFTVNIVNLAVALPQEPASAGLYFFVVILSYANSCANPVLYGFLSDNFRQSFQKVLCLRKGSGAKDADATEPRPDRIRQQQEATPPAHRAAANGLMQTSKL

- compound_structure: "C[C@@H](O)[C@@H]1NC(=O)[C@H](CCCCN)NC(=O)[C@@H](Cc2c[nH]c3ccccc23)NC(=O)[C@H](Cc2ccncc2)NC(=O)[C@H](Cc2ccccc2)NC(=O)[C@H](CCCNC(=N)N)NC(=O)[C@H](NCC[S@+]([O-])C[C@@H]2C[C@@H]3c4cccc5[nH]cc(c45)C[C@H]3N(C)C2)CCCCNC(=O)[C@H](Cc2ccc(O)cc2)NC1=O"
  Ki [nM]: 0.09

---

In this section we review reported Ki values for a set of molecules.
target: hSSTR2 (Homo sapiens, UniProt P30874); construct: host or cells: 'Cells expressing hSSTR2'; assay: Somatostatin receptor radioligand binding assay (hSSTR2);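 also: radioligand displacement on membranes of CHO-K1 cells stably transfected with human SSTR2, specific binding taken as total minus binding left with 1000 nM SRIF-14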

- molecule: "CC(=O)N(CCCNC(CN[C@@H]1CCCCNC(=O)[C@H](Cc2ccc(F)cc2)NC(=O)[C@H]([C@@H](C)O)NC(=O)[C@H](CCCCN)NC(=O)[C@@H](Cc2c[nH]c3ccccc23)NC(=O)[C@H](Cc2ccccc2)NC(=O)[C@H](Cc2ccccc2)NC(=O)[C@H](CCCNC(=N)N)NC1=O)Cc1ccc(O)cc1)C[C@@H]1C[C@@H]2c3cccc4[nH]cc(c34)C[C@H]2N(C)C1 (single isomer, unassigned) [Compound 28A]"
  output_unit: "nM"
  Ki: 0.04
- molecule: "C[C@@H](O)[C@@H]1NC(=O)[C@H](CCCCN)NC(=O)[C@@H](Cc2c[nH]c3ccccc23)NC(=O)[C@H](Cc2ccccc2)NC(=O)[C@H](Cc2ccccc2)NC(=O)[C@H](CCCNC(=N)N)NC(=O)[C@H](NC[C@H](Cc2ccc(O)cc2)NC(=O)C[S+]([O-])C[C@@H]2C[C@@H]3c4cccc5[nH]cc(c45)C[C@H]3N(C)C2)CCCCNC(=O)[C@H](Cc2ccc(F)cc2)NC1=O (stereo partly drawn)"
  output_unit: "nM"
  Ki: 0.04
- molecule: "C[C@@H](O)[C@@H]1NC(=O)[C@H](CCCCN)NC(=O)[C@@H](Cc2c[nH]c3ccccc23)NC(=O)[C@H](Cc2ccccc2)NC(=O)[C@H](Cc2ccccc2)NC(=O)[C@H](CCCNC(=N)N)NC(=O)[C@H](NCCS(=O)(=O)C[C@@H]2C[C@@H]3c4cccc5[nH]cc(c45)C[C@H]3N(C)C2)CCCCNC(=O)[C@H](Cc2ccc(F)cc2)NC1=O"
  output_unit: "nM"
  Ki: 0.17
- molecule: "C[C@@H](O)[C@@H]1NC(=O)[C@H](CCCCN)NC(=O)[C@@H](Cc2c[nH]c3ccccc23)NC(=O)[C@H](Cc2ccccc2)NC(=O)[C@H](Cc2ccccc2)NC(=O)[C@H](CCCNC(=N)N)NC(=O)[C@H](NC[C@H](Cc2ccc(O)cc2)NC(=O)CSC[C@@H]2C[C@@H]3c4cccc5[nH]cc(c45)C[C@H]3N(C)C2)CCCCNC(=O)[C@H](Cc2ccccc2)NC1=O"
  output_unit: "nM"
  Ki: 0.28
- molecule: "CC(=O)N(CCCN[C@@H]1CCCCNC(=O)[C@H](Cc2ccc(F)cc2)NC(=O)[C@H]([C@@H](C)O)NC(=O)[C@H](CCCCN)NC(=O)[C@@H](Cc2c[nH]c3ccccc23)NC(=O)[C@H](Cc2ccccc2)NC(=O)[C@H](Cc2ccccc2)NC(=O)[C@H](CCCNC(=N)N)NC1=O)C[C@@H]1C[C@@H]2c3cccc4[nH]cc(c34)C[C@H]2N(C)C1 [Compound 29A]"
  output_unit: "nM"
  Ki: 0.13
- molecule: "C[C@@H](O)[C@@H]1NC(=O)[C@H](CCCCN)NC(=O)[C@@H](Cc2c[nH]c3ccccc23)NC(=O)[C@H](Cc2ccccc2)NC(=O)[C@H](Cc2ccccc2)NC(=O)[C@H](CCCNC(=N)N)NC(=O)[C@H](NCCCS(=O)(=O)C[C@@H]2C[C@@H]3c4cccc5[nH]cc(c45)C[C@H]3N(C)C2)CCCCNC(=O)[C@H](Cc2ccc(F)cc2)NC1=O"
  output_unit: "nM"
  Ki: 0.25
